Target: T1, Boi2, P39969
T1 sequence (P39969 32-116, looked up): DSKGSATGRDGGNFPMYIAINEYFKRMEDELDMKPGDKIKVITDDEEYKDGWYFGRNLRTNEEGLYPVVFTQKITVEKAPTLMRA
Assay: SPOT array
Conditions: median of control spots 1161
Field 'label' (enum: Y / N). Set to Y when SPOT intensity is strictly under 1; else N.

Regarding ALFRLSFFFPLDPAY , kindly confirm whether its SPOT intensity is beneath 1. N

API: query returns whether the binder falls strictly under 1 in SPOT intensity. Query: NAGIRPKFILALNDE N

Given the entry SRSKPLPLTPNSKYN , would its reported SPOT intensity be below 1? Y

Given QTREPNEPPPPSPAM , is recorded SPOT intensity strictly lower than 1? N

Quick check: SPOT intensity of NFLRLLIGLPSQNEL under 1? N

Field: below-cutoff. Rule: recorded SPOT intensity strictly less than 1. Subject: LLIRWLILMPLVGSR N

Please check: SPOT intensity for TTAPALPSLPPPPLL , strictly under 1 or not? Y

Criterion: SPOT intensity strictly below 1. Is it met by AATTSTPPLPRRRAT ? N

Please determine if VYTRTAFQIPGDDKI is below 1 in terms of SPOT intensity. Y

Field: below-cutoff. Rule: recorded SPOT intensity strictly less than 1. Subject: GAGERPRLVPRPINV Y

Problem: For the binder IHTRRPSSTSQYLIR , is SPOT intensity under 1? Y

Does PPIPIVPSSPAPPLP have SPOT intensity strictly under 1? Y

For this binder, is SPOT intensity lower than 1? KWVRRPKLMTPLTFS Y

Hi there! Is SPOT intensity for QLLNPNRRAPRRPLS below 1, do you know? N
